Recorded log10(IC50) values for a group of compounds are listed next.
- target.or.test.system: Kinase A and Spo0F (Bacillus subtilis)
- Construct: made in house; host or cells: E. coli (recombinant, overexpressing)
- Sequence (P16497 1-606): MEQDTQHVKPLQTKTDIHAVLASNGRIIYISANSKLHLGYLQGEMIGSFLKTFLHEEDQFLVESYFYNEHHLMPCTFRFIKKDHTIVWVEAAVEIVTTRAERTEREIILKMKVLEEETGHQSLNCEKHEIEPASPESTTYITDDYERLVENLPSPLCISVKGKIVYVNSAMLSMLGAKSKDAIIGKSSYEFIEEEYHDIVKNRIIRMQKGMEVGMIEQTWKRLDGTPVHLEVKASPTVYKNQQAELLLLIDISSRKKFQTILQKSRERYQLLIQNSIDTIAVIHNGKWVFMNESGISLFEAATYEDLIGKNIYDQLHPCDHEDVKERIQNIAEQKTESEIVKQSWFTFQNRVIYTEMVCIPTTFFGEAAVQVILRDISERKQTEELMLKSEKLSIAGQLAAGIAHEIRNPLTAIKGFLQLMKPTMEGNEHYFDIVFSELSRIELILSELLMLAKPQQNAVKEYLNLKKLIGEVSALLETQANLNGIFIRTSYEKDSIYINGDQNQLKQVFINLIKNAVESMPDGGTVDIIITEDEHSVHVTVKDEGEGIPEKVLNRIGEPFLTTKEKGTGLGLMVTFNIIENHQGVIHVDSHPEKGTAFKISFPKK
- assay.explanation: Autophosphorylation of Kinase A and transphosphorylation of Spo0F assay (HPK in vitro assay)
- Format: biochemical
- condition.summary: inhibitor concentrations from 1 to 500 μM, [32P]ATP, phosphoimager
Form field - Quantity: IC50; Unit: µM; Scale: log10

Worked examples, 4 compounds total:
[
  {
    "smiles.string": "c1ccc(C(CCOc2ccc(CCC3=NCCO3)cc2)(c2ccccc2)c2ccccc2)cc1",
    "log10(IC50)": 2.41
  },
  {
    "smiles.string": "O=C(O)/C=C/c1ccc(OCCC(c2ccccc2)(c2ccccc2)c2ccccc2)cc1",
    "log10(IC50)": 1.85
  },
  {
    "smiles.string": "c1ccc(C(CCOc2ccc(CCc3nnn[nH]3)cc2)(c2ccccc2)c2ccccc2)cc1",
    "log10(IC50)": 1.04
  },
  {
    "smiles.string": "O=C(O)c1ccc2cc(OCCC(c3ccccc3)(c3ccccc3)c3ccccc3)ccc2c1",
    "log10(IC50)": 2.48
  }
]

O=C(O)C(=Cc1ccc(OCCC(c2ccccc2)(c2ccccc2)c2ccccc2)cc1)C(=O)O yielded log10(IC50) of 1.73

The measured values listed here are drawn from patent US5874436A.
